# Assay Method Text: in vitro
# Setup Conditions: human
Readout Name: CC50 (µM)
# unit: µM | format: bare number

A selection of reference data follows.
Exercise: Determine its reported CC50: COC(=O)c1cc(-c2ccc3[nH]ncc3c2)ccc1NC(C#N)[C@H](Cc1c[nH]c2ccccc12)NC(=O)OC(C)(C)C (mixture of isomers)
Solution: 10

Exercise: Specify measured CC50 for COC(=O)c1cc(-c2c[nH]c3ncccc23)ccc1NC(C#N)[C@H](Cc1c[nH]c2ccccc12)NC(=O)OC(C)(C)C (mixture of isomers) .
Solution: 10

Then this molecule:
Exercise: # return recorded CC50 for entry COC(=O)c1cc(-c2ccc3[nH]cnc3c2)ccc1NC(C#N)[C@H](Cc1c[nH]c2ccccc12)NC(=O)OC(C)(C)C (mixture of isomers)
Solution: 50

====

# Assay Method Text: in vitro
# Setup Conditions: human
Readout Name: CC50 (µM)
The answer is to be given in µM; state only the numeric part.

Exercise: Determine its reported CC50: CC(C)(C)OC(=O)N[C@@H](Cc1c[nH]c2ccccc12)C(C#N)Nc1ccccc1C(=O)N1CCCCCC1 (mixture of isomers) [Example 31]
Solution: 36

Shifting focus to the compound that follows.
Exercise: Respond only with CC50 recorded for COC(=O)c1cc(-c2ccc3cc[nH]c3c2)ccc1NC(C#N)[C@H](Cc1c[nH]c2ccccc12)NC(=O)OC(C)(C)C (mixture of isomers) [Example 11]
Solution: 30

====

# Assay Method Text: in vitro
# Setup Conditions: human
Readout Name: CC50

Below are worked cases with known answers.
Exercise: In one line, give reported CC50 of the entry COC(=O)c1cc(-c2ccc3ocnc3c2)ccc1NC(C#N)[C@H](Cc1c[nH]c2ccccc12)NC(=O)OC(C)(C)C (mixture of isomers) .
Solution: > 50 µM

Exercise: Look up and state reported CC50 for COC(=O)c1cc(-c2ccc(N3CCOCC3)cc2)ccc1NC(C#N)[C@H](Cc1c[nH]c2cccc(Br)c12)NC(=O)OC(C)(C)C (mixture of isomers)
Solution: > 50 µM

New cases:
Exercise: Note down CC50 recorded for COC(=O)c1cc(C2=CCCCC2)ccc1NC(C#N)[C@H](Cc1c[nH]c2ccccc12)NC(=O)OC(C)(C)C (mixture of isomers)
Solution: 32 µM

Exercise: Please look at this molecule and report its CC50: COC(=O)c1cc(-c2ccc(CN3CCOCC3)cc2)ccc1NC(C#N)[C@H](Cc1c[nH]c2ccccc12)NC(=O)OC(C)(C)C (mixture of isomers)
Solution: > 50 µM

Exercise: Provide CC50 value for the following molecule: COC(=O)c1cc(C2=CCN(C(=O)OC(C)(C)C)CC2)ccc1NC(C#N)[C@H](Cc1c[nH]c2ccccc12)NC(=O)OC(C)(C)C (mixture of isomers)
Solution: > 50 µM

====

# CC50 listing for each entry below
# Assay Method Text: in vitro
# Setup Conditions: human

Exercise: Please supply the value of reported CC50 for the item COC(=O)c1cc(-c2ccc3c(ccn3C(=O)OC(C)(C)C)c2)ccc1NC(C#N)[C@H](Cc1c[nH]c2ccccc12)NC(=O)OC(C)(C)C (mixture of isomers)
Solution: > 50 µM

Others:
Exercise: // Input: COC(=O)c1cc(-c2cc3ccccc3o2)ccc1NC(C#N)[C@H](Cc1c[nH]c2ccccc12)NC(=O)OC(C)(C)C (mixture of isomers) . Output its CC50 only.
Solution: > 50 µM

====

# Assay Method Text: in vitro
# Setup Conditions: human
Readout Name: CC50

Exercise: Note down CC50 recorded for COC(=O)c1cc(-c2cnn(Cc3ccccc3)c2)ccc1NC(C#N)[C@H](Cc1c[nH]c2ccccc12)NC(=O)OC(C)(C)C (mixture of isomers)
Solution: > 50 µM

Exercise: Read off the recorded CC50 for C#Cc1ccc(-c2cccc3[nH]cc(C[C@H](NC(=O)OC(C)(C)C)C(C#N)Nc4ccc(-c5ccc(N6CCOCC6)cc5)cc4C(=O)OC)c23)cc1 (mixture of isomers)
Solution: > 50 µM

Exercise: Using the record for COC(=O)c1cc(-c2ccc(F)c(-c3nn[nH]n3)c2)ccc1NC(C#N)[C@H](Cc1c[nH]c2ccccc12)NC(=O)OC(C)(C)C (mixture of isomers) , state its measured CC50.
Solution: > 50 µM

Exercise: Specify CC50 for COC(=O)c1cc(-c2ccc(C(=O)N3CCOCC3)cc2)ccc1NC(C#N)[C@H](Cc1c[nH]c2ccccc12)NC(=O)OC(C)(C)C (mixture of isomers) and stop.
Solution: > 50 µM

Exercise: # return recorded CC50 for input COC(=O)c1cc(-c2ccc3[nH]ccc3c2)ccc1NC(C#N)[C@H](Cc1c[nH]c2ccccc12)NC(=O)OC(C)(C)C (mixture of isomers)
Solution: 50 µM

====

List of CC50 values.
# Assay Method Text: in vitro
# Setup Conditions: human
Hi! Could you send only the number? It should be in µM, unit omitted.

Exercise: Please list CC50 recorded for the molecule COC(=O)c1cc(-c2cc3ccccc3s2)ccc1NC(C#N)[C@H](Cc1c[nH]c2ccccc12)NC(=O)OC(C)(C)C (mixture of isomers)
Solution: 13

Exercise: Report measured CC50; entry is COC(=O)c1cc(-c2ccc3[nH]ccc3c2)ccc1NC(C#N)[C@@H](Cc1c[nH]c2ccccc12)NC(=O)OC(C)(C)C (mixture of isomers)
Solution: 35

Consider now this further molecule.
Exercise: Return reported CC50. Input molecule: COC(=O)c1cc(-c2cccc3[nH]ncc23)ccc1NC(C#N)[C@H](Cc1c[nH]c2ccccc12)NC(=O)OC(C)(C)C (mixture of isomers)
Solution: 10

====

Items are presented alongside their recorded CC50.
# Assay Method Text: in vitro
# Setup Conditions: human
Response body: numeric value in µM, unit text excluded.

Exercise: Return CC50 for the following compound: COC(=O)c1cc(-c2ccnn2C2CCCCO2)ccc1NC(C#N)[C@H](Cc1c[nH]c2ccccc12)NC(=O)OC(C)(C)C (mixture of isomers)
Solution: 50

Pending compound:
Exercise: Give reported CC50 value for CC(C)(C)OC(=O)N[C@H](Cc1c[nH]c2ccccc12)C(C#N)Nc1ccc(Br)cc1C(=O)c1ccccc1 (mixture of isomers)
Solution: 50
